Test system: MDA-MB-435
EXPERIMENT NOTES: NCI tumour cell line growth inhibition, 48 h
Calls of active or inactive are those of the source. Cut-off read from the data, not from the text of the source: active = GI50 up to about 1.1 µM and inactive = higher.
Field 'call' accepts active, inactive

Please review the entries below; each comes with its answer.
{"COMPOUND": "CC1(C)C=C(S(=O)(=O)c2ccccc2)Oc2ccccc2O1", "ASSIGNED CATEGORY": "inactive"}
{"COMPOUND": "N#C/C(=C1C=C(Br)/C(=N\\O)C=C\\1Cl)c1cccc2ccccc12", "ASSIGNED CATEGORY": "inactive"}
{"COMPOUND": "COC(=O)C1(C(=O)OC)Cc2ccc(OC)cc2C2=C1C(=O)c1ccccc1C2=O", "ASSIGNED CATEGORY": "inactive"}
{"COMPOUND": "CN(C)CS/C(N)=N\\C(O)C(Cl)(Cl)Cl (stereo not given)", "ASSIGNED CATEGORY": "inactive"}
{"COMPOUND": "FC(F)(F)c1cc(Cl)cnc1N/N=C(/c1ccccc1)c1ccccn1", "ASSIGNED CATEGORY": "inactive"}
{"COMPOUND": "CC(C(=O)NCNC(=O)c1ccccc1)C(=O)NCc1ccccc1 (stereo not given)", "ASSIGNED CATEGORY": "inactive"}

Req: How did this test come out for Cc1ccc([N+](=O)[O-])c2c(NCCC[N+](C)(C)[O-])c3ccccc3nc12 ?
Resp: inactive

Req: How did this test come out for CC#CC(O)(C(=O)OC1CC2CCC(C1)N2C)C1CCCC1 (stereo not given) ?
Resp: inactive

Req: How did this test come out for C#C[C@]1(O)CC[C@H]2[C@@H]3CCC4=C/C(=N\OCCN5CCCC5)CC[C@]4(C)[C@H]3CC[C@@]21C ?
Resp: inactive

Req: How did this test come out for CCOC(=O)N1CCc2cc(OC)c(OC)c3c2c1cc1cc(OC)c(OC)cc13 ?
Resp: active
